- method_notes: Drug concentration in cynomolgus monkey plasma at 3 mg/kg, po measured upto 24 hrs
- Type: ADME, organism-based, Macaca fascicularis
- recorded_conditions: read-out: Ct
Consider the following compounds and their measured concentration at 24 h readings.

mol_smiles	concentration at 24 h [nM]
CC[C@@H]1C[C@H](C)CC/C=C\[C@@H]2C[C@@]2(C(=O)NS(=O)(=O)C2(C)CC2)NC(=O)[C@@H]2C[C@@H](Oc3nccc4cc(OC)c(F)cc34)CN2C(=O)[C@H]1NC(=O)OC(C)(C)C(F)(F)F	1
CC[C@@H]1C[C@H](C)CC/C=C\[C@@H]2C[C@@]2(C(=O)NS(=O)(=O)C2(C)CC2)NC(=O)[C@@H]2C[C@@H](Oc3ncc(OC)c4ccc(F)cc34)CN2C(=O)[C@H]1NC(=O)OC(C)(C)C(F)(F)F	13

###

# bioavailability listing for each entry below
- method_notes: Oral bioavailability in rat at 5 mg/kg
- Assay type: ADME, organism-based
- recorded_conditions: in vivo

mol_smiles	unit_annotation	bioavailability
[2H]C([2H])([2H])Oc1cc2ccnc(O[C@@H]3C[C@H]4C(=O)N[C@]5(C(=O)NS(=O)(=O)C6(C)CC6)C[C@H]5/C=C\CC[C@@H](C)C[C@@H](CC)[C@H](NC(=O)OC(C)(C)C(F)(F)F)C(=O)N4C3)c2cc1F	%	57
CC[C@@H]1C[C@H](C)CC/C=C\[C@@H]2C[C@@]2(C(=O)NS(=O)(=O)C2(C)CC2)NC(=O)[C@@H]2C[C@@H](Oc3ncc(OC)c4ccccc34)CN2C(=O)[C@H]1NC(=O)OC(C)(C)C(F)(F)F	%	42
CC[C@@H]1C[C@H](C)CC/C=C\[C@@H]2C[C@@]2(C(=O)NS(=O)(=O)C2(C)CC2)NC(=O)[C@@H]2C[C@@H](Oc3nccc4cc(OC)c(F)cc34)CN2C(=O)[C@H]1NC(=O)OC(C)(C)C(F)(F)F	%	50
CC[C@@H]1C[C@H](C)CC/C=C\[C@@H]2C[C@@]2(C(=O)NS(=O)(=O)C2CC2)NC(=O)[C@@H]2C[C@@H](Oc3ncc(OC)c4ccccc34)CN2C(=O)[C@H]1NC(=O)OC(C)(C)C(F)(F)F	%	61

###

# EC50 per entry
- method_notes: Inhibition of recombinant full length NS3/4A D168V mutant protease in Hepatitis C virus subtype 1b replicon infected in human HuH7 cells preincubated for 3 days followed by substrate addition and measured after 2 hrs by renilla luciferase reporter gene assay
- Assay type: cell-based
- recorded_conditions: Huh-7

mol_smiles	EC50 (nM)
COc1cnc(O[C@@H]2C[C@H]3C(=O)N[C@]4(C(=O)NS(=O)(=O)C5CC5)C[C@H]4/C=C\CC[C@H](C)C[C@@H](C)[C@H](NC(=O)OC(C)(C)C)C(=O)N3C2)c2cc(Cl)ccc12	25
CC[C@@H]1CCCC/C=C\[C@@H]2C[C@@]2(C(=O)NS(=O)(=O)C2CC2)NC(=O)[C@@H]2C[C@@H](Oc3ncc(OC)c4ccc(Cl)cc34)CN2C(=O)[C@H]1NC(=O)OC(C)(C)C(F)(F)F	4.8
CC[C@@H]1C[C@H](C)CC/C=C\[C@@H]2C[C@@]2(C(=O)NS(=O)(=O)C2CC2)NC(=O)[C@@H]2C[C@@H](Oc3ncc(OC)c4ccccc34)CN2C(=O)[C@H]1NC(=O)OC(C)(C)C(F)(F)F	17
COc1cnc(O[C@@H]2C[C@H]3C(=O)N[C@]4(C(=O)NS(=O)(=O)C5CC5)C[C@H]4/C=C\CCCC[C@@H](C)[C@H](NC(=O)OC(C)(C)C(F)(F)F)C(=O)N3C2)c2cc(Cl)ccc12	6.8
CC[C@@H]1C[C@H](C)CC/C=C\[C@@H]2C[C@@]2(C(=O)NS(=O)(=O)C2(C)CC2)NC(=O)[C@@H]2C[C@@H](Oc3ncc(OC)c4ccccc34)CN2C(=O)[C@H]1NC(=O)OC(C)(C)C(F)(F)F	5.4

###

- method_notes: AUC in cynomolgus monkey at 3 mg/kg, po or 1 mg/kg, iv
- Assay type: ADME, organism-based, Macaca fascicularis
- Parameters: dose 3 mg/kg
- recorded_conditions: in vivo
Let's look at some compounds and their measured AUC.
value_type: AUC (µM·h)

mol_smiles	quantitative_result
CC[C@@H]1C[C@H](C)CC/C=C\[C@@H]2C[C@@]2(C(=O)NS(=O)(=O)C2(C)CC2)NC(=O)[C@@H]2C[C@@H](Oc3ncc(OC)c4ccc(F)cc34)CN2C(=O)[C@H]1NC(=O)OC(C)(C)C(F)(F)F	2.9
[2H]C([2H])([2H])Oc1cc2ccnc(O[C@@H]3C[C@H]4C(=O)N[C@]5(C(=O)NS(=O)(=O)C6(C)CC6)C[C@H]5/C=C\CC[C@@H](C)C[C@@H](CC)[C@H](NC(=O)OC(C)(C)C(F)(F)F)C(=O)N4C3)c2cc1F	0.19
CC[C@@H]1C[C@H](C)CC/C=C\[C@@H]2C[C@@]2(C(=O)NS(=O)(=O)C2(C)CC2)NC(=O)[C@@H]2C[C@@H](Oc3nccc4cc(OC)c(F)cc34)CN2C(=O)[C@H]1NC(=O)OC(C)(C)C(F)(F)F	0.898
C=C[C@@H]1C[C@]1(NC(=O)[C@@H]1C[C@@H](Oc2ncc(OC)c3ccc(Cl)cc23)CN1C(=O)[C@@H](NC(=O)OC(C)(C)C)C(C)(C)C)C(=O)NS(=O)(=O)C1CC1	0.65

###

// AUC lookup, one value per entry
- method_notes: AUC in dog at 3 mg/kg, po or 1 mg/kg, iv
- Assay type: ADME, organism-based, Canis lupus familiaris
- Parameters: dose 3 mg/kg
- recorded_conditions: in vivo

mol_smiles	AUC (µM·h)
CC[C@@H]1C[C@H](C)CC/C=C\[C@@H]2C[C@@]2(C(=O)NS(=O)(=O)C2(C)CC2)NC(=O)[C@@H]2C[C@@H](Oc3nccc4cc(OC)c(F)cc34)CN2C(=O)[C@H]1NC(=O)OC(C)(C)C(F)(F)F	81
[2H]C([2H])([2H])Oc1cc2ccnc(O[C@@H]3C[C@H]4C(=O)N[C@]5(C(=O)NS(=O)(=O)C6(C)CC6)C[C@H]5/C=C\CC[C@@H](C)C[C@@H](CC)[C@H](NC(=O)OC(C)(C)C(F)(F)F)C(=O)N4C3)c2cc1F	39.8
C=C[C@@H]1C[C@]1(NC(=O)[C@@H]1C[C@@H](Oc2ncc(OC)c3ccc(Cl)cc23)CN1C(=O)[C@@H](NC(=O)OC(C)(C)C)C(C)(C)C)C(=O)NS(=O)(=O)C1CC1	2.2
CC[C@@H]1C[C@H](C)CC/C=C\[C@@H]2C[C@@]2(C(=O)NS(=O)(=O)C2(C)CC2)NC(=O)[C@@H]2C[C@@H](Oc3ncc(OC)c4ccc(F)cc34)CN2C(=O)[C@H]1NC(=O)OC(C)(C)C(F)(F)F	71

###

- method_notes: Clearance in cynomolgus monkey at 3 mg/kg, po or 1 mg/kg, iv
- Assay type: ADME, organism-based, Macaca fascicularis
- recorded_conditions: in vivo

mol_smiles	clearance (mL/min/kg)
CC[C@@H]1C[C@H](C)CC/C=C\[C@@H]2C[C@@]2(C(=O)NS(=O)(=O)C2(C)CC2)NC(=O)[C@@H]2C[C@@H](Oc3nccc4cc(OC)c(F)cc34)CN2C(=O)[C@H]1NC(=O)OC(C)(C)C(F)(F)F	9.3
[2H]C([2H])([2H])Oc1cc2ccnc(O[C@@H]3C[C@H]4C(=O)N[C@]5(C(=O)NS(=O)(=O)C6(C)CC6)C[C@H]5/C=C\CC[C@@H](C)C[C@@H](CC)[C@H](NC(=O)OC(C)(C)C(F)(F)F)C(=O)N4C3)c2cc1F	12.1
CC[C@@H]1C[C@H](C)CC/C=C\[C@@H]2C[C@@]2(C(=O)NS(=O)(=O)C2(C)CC2)NC(=O)[C@@H]2C[C@@H](Oc3ncc(OC)c4ccc(F)cc34)CN2C(=O)[C@H]1NC(=O)OC(C)(C)C(F)(F)F	5.5

###

pEC50 values for the compounds below.
- method_notes: Inhibition of recombinant full length NS3/4A protease in Hepatitis C virus subtype 3a replicon infected in human HuH7 cells preincubated for 3 days followed by substrate addition and measured after 2 hrs by renilla luciferase reporter gene assay
- Type: cell-based
- recorded_conditions: Huh-7
pEC50: −log10 of the molar value.

mol_smiles	pEC50
COc1cnc(O[C@@H]2C[C@H]3C(=O)N[C@]4(C(=O)NS(=O)(=O)C5CC5)C[C@H]4/C=C\CCCC[C@@H](C)[C@H](NC(=O)OC(C)(C)C(F)(F)F)C(=O)N3C2)c2cc(Cl)ccc12	7.37
CC[C@@H]1C[C@H](C)CC/C=C\[C@@H]2C[C@@]2(C(=O)NS(=O)(=O)C2(C)CC2)NC(=O)[C@@H]2C[C@@H](Oc3nccc4cc(OC)c(F)cc34)CN2C(=O)[C@H]1NC(=O)OC(C)(C)C(F)(F)F	7.85
COc1cnc(O[C@@H]2C[C@H]3C(=O)N[C@]4(C(=O)NS(=O)(=O)C5(C)CC5)C[C@H]4/C=C\CC[C@@H](C)C[C@@H](C)[C@H](NC(=O)OC(C)(C)C(F)(F)F)C(=O)N3C2)c2ccccc12	8.30
CC[C@@H]1C[C@H](C)CC/C=C\[C@@H]2C[C@@]2(C(=O)NS(=O)(=O)C2(C)CC2)NC(=O)[C@@H]2C[C@@H](Oc3ncc(OC)c4ccc(F)cc34)CN2C(=O)[C@H]1NC(=O)OC(C)(C)C(F)(F)F	7.82
COc1cnc(O[C@@H]2C[C@H]3C(=O)N[C@]4(C(=O)NS(=O)(=O)C5CC5)C[C@H]4/C=C\CC[C@@H](C)C[C@@H](C)[C@H](NC(=O)OC(C)(C)C(F)(F)F)C(=O)N3C2)c2ccccc12	8.70

Source: ChEMBL document CHEMBL4765464
